Cited source: ChEMBL document CHEMBL1128564

pIC50: −log10 of the molar value.
As a worked illustration, we turn to pIC50 data collected for UniProtKB P21396.

{"compoundStructure": "O=C1c2ccccc2-c2nnc(-c3ccc(Br)cc3)cc21", "targetOrTestSystem": "UniProtKB P21396", "qualifierSymbol": "=", "pIC50": 6.00}
{"compoundStructure": "N#Cc1ccc(-c2cc3c(nn2)-c2ccccc2C3=O)cc1", "targetOrTestSystem": "UniProtKB P21396", "qualifierSymbol": "=", "pIC50": 4.60}
{"compoundStructure": "O=C1c2ccccc2-c2nnc(-c3ccccc3O)cc21", "targetOrTestSystem": "UniProtKB P21396", "qualifierSymbol": "=", "pIC50": 6.00}
{"compoundStructure": "O=C1c2ccccc2-c2nnc(-c3ccc4ccccc4c3)cc21", "targetOrTestSystem": "UniProtKB P21396", "qualifierSymbol": "=", "pIC50": 5.00}
{"compoundStructure": "O=C1c2ccccc2-c2nnc(/C=C/c3ccccc3)cc21", "targetOrTestSystem": "UniProtKB P21396", "qualifierSymbol": "<", "pIC50": 6.00}
{"compoundStructure": "O=C(O)c1ccc(-c2cc3c(nn2)-c2ccccc2C3=O)cc1", "targetOrTestSystem": "UniProtKB P21396", "qualifierSymbol": "=", "pIC50": 4.00}
{"compoundStructure": "O=C1c2ccccc2-c2nnc(-c3cccc(C(F)(F)F)c3)cc21", "targetOrTestSystem": "UniProtKB P21396", "qualifierSymbol": "<", "pIC50": 5.30}
{"compoundStructure": "O=C1c2ccccc2-c2nnc3ccc4ccccc4c3c21", "targetOrTestSystem": "UniProtKB P21396", "qualifierSymbol": "=", "pIC50": 5.00}
{"compoundStructure": "O=C1c2ccccc2-c2nnc(-c3cccc([N+](=O)[O-])c3)cc21", "targetOrTestSystem": "UniProtKB P21396", "qualifierSymbol": "=", "pIC50": 6.00}
{"compoundStructure": "O=C1c2ccccc2-c2nnc(-c3ccccc3F)cc21", "targetOrTestSystem": "UniProtKB P21396", "qualifierSymbol": "<", "pIC50": 4.70}
{"compoundStructure": "O=C1c2ccccc2-c2nnc(-c3cccc4ccccc34)cc21", "targetOrTestSystem": "UniProtKB P21396", "qualifierSymbol": "=", "pIC50": 5.00}
{"compoundStructure": "COc1ccc(-c2cc3c(nn2)-c2ccccc2C3=O)cc1", "targetOrTestSystem": "UniProtKB P21396", "qualifierSymbol": "=", "pIC50": 5.00}
{"compoundStructure": "O=C1c2ccccc2-c2nnc(-c3cc(Cl)cc(Cl)c3)cc21", "targetOrTestSystem": "UniProtKB P21396", "qualifierSymbol": "=", "pIC50": 6.00}

----------
What follows is a collection of log10(IC50) values obtained with Amine oxidase [flavin-containing] A (Rattus norvegicus, UniProt P21396).
testReadout: log10(IC50) (log10 of the value in µM)

{"compoundStructure": "O=C1c2cc(O)ccc2-c2nnc(-c3cccc(C(F)(F)F)c3)cc21", "testReadout": "log10(IC50)", "measuredNumber": 0.70}
{"compoundStructure": "O=C1c2ccccc2-c2nnc(CCc3ccccc3)cc21", "testReadout": "log10(IC50)", "measuredNumber": 1.70}
{"compoundStructure": "COc1cc(-c2cc3c(nn2)-c2ccccc2C3=O)ccc1O", "testReadout": "log10(IC50)", "measuredNumber": 1.00}
{"compoundStructure": "O=C1c2ccccc2-c2nnc(C(F)(F)F)cc21", "testReadout": "log10(IC50)", "measuredNumber": 1.40}
{"compoundStructure": "Nc1cccc(-c2cc3c(nn2)-c2ccccc2C3=O)c1", "testReadout": "log10(IC50)", "measuredNumber": 1.41}
{"compoundStructure": "O=C1c2ccccc2-c2nnc(Cc3ccccc3)cc21", "testReadout": "log10(IC50)", "measuredNumber": 2.00}
{"compoundStructure": "O=C1c2ccccc2-c2nnc3c(c21)CCc1ccccc1-3", "testReadout": "log10(IC50)", "measuredNumber": 1.70}
{"compoundStructure": "COc1ccc2c(c1)C(=O)c1cc(-c3cccc(C(F)(F)F)c3)nnc1-2", "testReadout": "log10(IC50)", "measuredNumber": 0.70}
{"compoundStructure": "O=C1c2ccccc2-c2nnc(-c3ccc(N4CCCCC4)cc3)cc21", "testReadout": "log10(IC50)", "measuredNumber": 0.00}

----------
# maps each entry to its pIC50
Sequence of the target: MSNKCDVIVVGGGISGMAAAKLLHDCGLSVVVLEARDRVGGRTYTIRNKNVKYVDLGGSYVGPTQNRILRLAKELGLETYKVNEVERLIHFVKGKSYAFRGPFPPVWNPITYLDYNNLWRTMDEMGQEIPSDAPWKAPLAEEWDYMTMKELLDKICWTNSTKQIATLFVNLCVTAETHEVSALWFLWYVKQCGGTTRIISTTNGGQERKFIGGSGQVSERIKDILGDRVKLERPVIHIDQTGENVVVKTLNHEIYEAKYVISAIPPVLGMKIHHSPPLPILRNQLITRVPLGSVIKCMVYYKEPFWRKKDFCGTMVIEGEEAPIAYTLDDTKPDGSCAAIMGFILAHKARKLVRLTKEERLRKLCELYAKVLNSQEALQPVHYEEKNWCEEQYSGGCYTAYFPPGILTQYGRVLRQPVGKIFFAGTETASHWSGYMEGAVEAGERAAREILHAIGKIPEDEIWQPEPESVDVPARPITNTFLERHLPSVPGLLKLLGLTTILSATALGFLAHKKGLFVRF
pIC50: −log10 of the molar value.

{"compoundStructure": "O=C1c2ccccc2-c2nnc3ccc4ccccc4c3c21", "qualifierSymbol": "=", "pIC50": 5.00}
{"compoundStructure": "O=C1c2ccccc2-c2nnc(-c3ccccn3)cc21", "qualifierSymbol": "<", "pIC50": 4.60}
{"compoundStructure": "COc1ccc(-c2cc3c(nn2)-c2ccccc2C3=O)cc1OC", "qualifierSymbol": "=", "pIC50": 6.00}
{"compoundStructure": "O=C(c1ccccc1)c1cc2c(nn1)-c1ccccc1C2=O", "qualifierSymbol": "=", "pIC50": 4.79}
{"compoundStructure": "CC(=O)Nc1ccc(-c2cc3c(nn2)-c2ccccc2C3=O)cc1", "qualifierSymbol": "<", "pIC50": 5.00}
{"compoundStructure": "Cc1c(-c2ccccc2)nnc2c1C(=O)c1ccccc1-2", "qualifierSymbol": "<", "pIC50": 4.00}
{"compoundStructure": "O=C1c2ccccc2-c2nnc(-c3cccc([N+](=O)[O-])c3)cc21", "qualifierSymbol": "<", "pIC50": 6.30}
{"compoundStructure": "O=C1c2ccccc2-c2nnc(-c3cccc(O)c3)cc21", "qualifierSymbol": "<", "pIC50": 6.00}
{"compoundStructure": "Nc1ccc(-c2cc3c(nn2)-c2ccccc2C3=O)cc1", "qualifierSymbol": "=", "pIC50": 4.61}
{"compoundStructure": "O=C1c2ccccc2-c2nnc(-c3cccc4ccccc34)cc21", "qualifierSymbol": "<", "pIC50": 5.30}
{"compoundStructure": "O=C1c2ccccc2-c2nnc3ccccc3c21", "qualifierSymbol": "=", "pIC50": 6.00}
{"compoundStructure": "O=C1c2ccccc2-c2nnc3c(c21)-c1ccccc1CC3", "qualifierSymbol": "=", "pIC50": 4.30}

----------
Listing of entries alongside the reported pIC50.
# targetOrTestSystem: Amine oxidase [flavin-containing] A (Rattus norvegicus)
# Sequence (P21396 whole entry): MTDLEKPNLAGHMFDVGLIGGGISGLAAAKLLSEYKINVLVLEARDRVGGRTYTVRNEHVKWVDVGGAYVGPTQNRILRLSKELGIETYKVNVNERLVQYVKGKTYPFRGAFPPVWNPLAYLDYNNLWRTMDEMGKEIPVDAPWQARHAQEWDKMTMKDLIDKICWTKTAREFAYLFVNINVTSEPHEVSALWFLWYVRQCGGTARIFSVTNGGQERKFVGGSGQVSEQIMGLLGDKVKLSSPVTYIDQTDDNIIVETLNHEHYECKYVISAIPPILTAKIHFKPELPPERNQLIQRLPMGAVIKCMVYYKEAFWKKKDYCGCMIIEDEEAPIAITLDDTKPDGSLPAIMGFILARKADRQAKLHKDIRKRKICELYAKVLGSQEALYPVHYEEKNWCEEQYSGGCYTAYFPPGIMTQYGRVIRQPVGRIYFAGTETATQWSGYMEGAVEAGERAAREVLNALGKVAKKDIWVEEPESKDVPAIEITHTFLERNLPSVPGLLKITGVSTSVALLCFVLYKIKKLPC
pIC50: −log10 of the molar value.

{"compoundStructure": "Cc1cc2c(nn1)-c1ccccc1C2=O", "pIC50": "< 4.00"}
{"compoundStructure": "O=C1c2ccccc2-c2nnc(-c3ccccc3Cl)cc21", "pIC50": "< 4.30"}
{"compoundStructure": "N#Cc1cccc(-c2cc3c(nn2)-c2ccccc2C3=O)c1", "pIC50": "< 5.00"}
